All values here come from BindingDB's records for doi:10.1016/j.bmc.2013.06.038.

molecular target: Sodium- and chloride-dependent GABA transporter 2 (Mus musculus); experiment: Inhibition of mouse GAT2-mediated [3H]GABA uptake stably transfected in HEK293 cells
Experimental Readout: pIC50
Schema: pIC50 number; meaning minus log10 of the concentration expressed in molar units.

Example entries begin here.
O=C(NCc1ccc(Cl)cc1)C(CCO)NCCCC(c1ccccc1)c1ccccc1 (centres undefined)    4.96
O=C(NCc1ccc(F)cc1)C(CCO)N1CCC(=C(c2ccccc2)c2ccccc2)CC1 (centres undefined)    4.78
O=C(NCc1ccc(Cl)cc1)C(CCO)N1CCC(C(c2ccccc2)c2ccccc2)CC1 (centres undefined)    4.22
C[C@H](O)C[C@H](C(=O)NCc1ccccc1)N1CCC(=C(c2ccccc2)c2ccccc2)CC1    4.21
CN(CCCC(c1ccccc1)c1ccccc1)C(CCO)C(=O)NCc1ccccc1Cl (centres undefined)    4.54
O=C(NCc1ccccc1Cl)C(CCO)N1CCC(=C(c2ccccc2)c2ccccc2)CC1 (centres undefined)    4.12

## Task # input compound: O=C(NCc1ccccc1)C(CCO)N1CCC(=C(c2ccccc2)c2ccccc2)CC1 (centres undefined) ; wanted: its pIC50
## Result 4.33

## Task # input compound: C[C@@H](O)C[C@H](C(=O)NCc1ccc(F)cc1)N1CCC(=C(c2ccccc2)c2ccccc2)CC1 ; wanted: its pIC50
## Result 4.19

## Task # input compound: Cc1ccc(CNC(=O)C(CCO)N(C)CCC=C(c2ccccc2)c2ccccc2)cc1 (centres undefined) ; wanted: its pIC50
## Result 4.84

## Task # input compound: Cc1ccc(CNC(=O)[C@@H](C[C@@H](C)O)N2CCC(=C(c3ccccc3)c3ccccc3)CC2)cc1 ; wanted: its pIC50
## Result 4.62

* * *

Target: Sodium- and chloride-dependent GABA transporter 3 (Mus musculus, UniProt P31650)
Sequence (P31650 whole entry): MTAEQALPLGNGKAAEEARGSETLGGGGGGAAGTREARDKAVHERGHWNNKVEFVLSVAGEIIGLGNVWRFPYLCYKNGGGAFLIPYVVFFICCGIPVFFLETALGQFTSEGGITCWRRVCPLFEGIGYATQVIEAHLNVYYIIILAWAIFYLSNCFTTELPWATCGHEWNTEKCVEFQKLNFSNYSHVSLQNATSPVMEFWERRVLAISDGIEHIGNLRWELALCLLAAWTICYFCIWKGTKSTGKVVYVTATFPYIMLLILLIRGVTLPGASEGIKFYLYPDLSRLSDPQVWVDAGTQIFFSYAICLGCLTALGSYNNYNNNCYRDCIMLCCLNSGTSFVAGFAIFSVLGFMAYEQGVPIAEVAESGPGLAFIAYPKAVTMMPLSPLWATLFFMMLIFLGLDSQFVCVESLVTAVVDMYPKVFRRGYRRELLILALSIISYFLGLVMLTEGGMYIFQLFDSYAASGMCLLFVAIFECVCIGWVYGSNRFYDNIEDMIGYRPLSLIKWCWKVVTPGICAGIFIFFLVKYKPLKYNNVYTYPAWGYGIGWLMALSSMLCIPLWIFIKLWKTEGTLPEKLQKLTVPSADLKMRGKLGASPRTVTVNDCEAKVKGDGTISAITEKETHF
Test: Inhibition of mouse GAT3-mediated [3H]GABA uptake stably transfected in HEK293 cells
# strict inequality: IC50 < 20 µM yields Yes, everything else yields No

Known results for compounds:
CN(CCC=C(c1ccccc1)c1ccccc1)C(CCO)C(=O)NCc1ccc(F)cc1 (stereo not drawn)    Yes
CN(CCCC(c1ccccc1)c1ccccc1)C(CCO)C(=O)NCc1ccccc1 (stereo not drawn)    No

Now examine the next entry.
## Task Check if IC50 falls below 20 µM for CN(CCCC(c1ccccc1)c1ccccc1)C(CCO)C(=O)NCc1ccc(F)cc1 (stereo not drawn) .
## Result No

* * *

target: UniProt P31649; assay: Inhibition of mouse GAT2-mediated [3H]GABA uptake stably transfected in HEK293 cells
Some molecules, each annotated with its measured pIC50.
Schema: pIC50 number; meaning minus log10 of the concentration expressed in molar units.

## Task # input molecule: CN(CCCC(c1ccccc1)c1ccccc1)C(CCO)C(=O)NCc1ccccc1 (stereo not drawn) ; wanted: its pIC50
## Result 4.40

## Task # input molecule: O=C(NCc1ccc(Cl)cc1)C(CCO)N1CCC(=C(c2ccccc2)c2ccccc2)CC1 (stereo not drawn) ; wanted: its pIC50
## Result 4.71

## Task # input molecule: Cc1ccc(CNC(=O)C(CCO)N(C)CCCC(c2ccccc2)c2ccccc2)cc1 (stereo not drawn) ; wanted: its pIC50
## Result 4.54

## Task # input molecule: CN(CCC=C(c1ccccc1)c1ccccc1)C(CCO)C(=O)NCc1ccccc1 (stereo not drawn) ; wanted: its pIC50
## Result 4.57

## Task # input molecule: CN(CCC=C(c1ccccc1)c1ccccc1)C(CCO)C(=O)NCc1ccccc1Cl (stereo not drawn) ; wanted: its pIC50
## Result 4.90

## Task # input molecule: C[C@H](O)C[C@H](C(=O)NCc1ccc(F)cc1)N1CCC(=C(c2ccccc2)c2ccccc2)CC1 ; wanted: its pIC50
## Result 4.00

## Task # input molecule: Cc1ccc(CNC(=O)C(CCO)NCCCC(c2ccccc2)c2ccccc2)cc1 (stereo not drawn) ; wanted: its pIC50
## Result 4.77

## Task # input molecule: O=C(NCc1ccccc1)C(CCO)NCCCC(c1ccccc1)c1ccccc1 (stereo not drawn) ; wanted: its pIC50
## Result 4.54

* * *

molecular target: Sodium- and chloride-dependent GABA transporter 2 (Mus musculus, UniProt P31649); assay: Inhibition of mouse GAT2-mediated [3H]GABA uptake stably transfected in HEK293 cells
Sequence (P31649 whole entry): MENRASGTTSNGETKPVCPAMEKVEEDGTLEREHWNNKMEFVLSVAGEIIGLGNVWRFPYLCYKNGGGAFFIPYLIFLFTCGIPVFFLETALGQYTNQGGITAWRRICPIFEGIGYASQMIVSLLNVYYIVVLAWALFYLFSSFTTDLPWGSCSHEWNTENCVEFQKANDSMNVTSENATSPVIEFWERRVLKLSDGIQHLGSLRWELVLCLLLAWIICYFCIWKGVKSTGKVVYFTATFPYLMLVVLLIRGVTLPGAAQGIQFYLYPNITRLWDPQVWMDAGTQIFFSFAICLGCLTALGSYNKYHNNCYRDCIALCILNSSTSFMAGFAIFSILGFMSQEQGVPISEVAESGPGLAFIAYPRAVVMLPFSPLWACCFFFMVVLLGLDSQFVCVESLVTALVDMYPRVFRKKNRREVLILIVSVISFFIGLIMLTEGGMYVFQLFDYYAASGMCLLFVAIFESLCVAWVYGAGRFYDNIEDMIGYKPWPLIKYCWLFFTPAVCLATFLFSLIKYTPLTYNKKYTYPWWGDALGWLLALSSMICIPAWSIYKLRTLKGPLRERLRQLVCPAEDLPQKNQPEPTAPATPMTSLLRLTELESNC
# strict inequality: IC50 < 40 µM yields rule met, everything else yields rule not met

Known results for molecules:
CN(CCC=C(c1ccccc1)c1ccccc1)C(CCO)C(=O)NCc1ccc(Cl)cc1 (centres undefined)    rule met
Cc1ccc(CNC(=O)C(CCO)N2CCC(=C(c3ccccc3)c3ccccc3)CC2)cc1 (centres undefined)    rule met
O=C(NCc1ccc(F)cc1)C(CCO)N1CCC(C(c2ccccc2)c2ccccc2)CC1 (centres undefined)    rule not met
Cc1ccc(CNC(=O)C(CCO)N2CCC(C(c3ccccc3)c3ccccc3)CC2)cc1 (centres undefined)    rule met
CN(CCCC(c1ccccc1)c1ccccc1)C(CCO)C(=O)NCc1ccc(F)cc1 (centres undefined)    rule not met

## Task Check if IC50 falls below 40 µM for O=C(NCc1ccc(F)cc1)C(CCO)NCCCC(c1ccccc1)c1ccccc1 (centres undefined) .
## Result rule met

## Task Check if IC50 falls below 40 µM for Cc1ccc(CNC(=O)[C@@H](C[C@H](C)O)N2CCC(=C(c3ccccc3)c3ccccc3)CC2)cc1 .
## Result rule not met

## Task Check if IC50 falls below 40 µM for O=C(NCc1ccccc1Cl)C(CCO)N1CCC(C(c2ccccc2)c2ccccc2)CC1 (centres undefined) .
## Result rule not met

## Task Check if IC50 falls below 40 µM for C[C@@H](O)C[C@H](C(=O)NCc1ccccc1)N1CCC(=C(c2ccccc2)c2ccccc2)CC1 .
## Result rule not met

* * *

biological target: Sodium- and chloride-dependent GABA transporter 3 (Mus musculus); assay: Inhibition of mouse GAT3-mediated [3H]GABA uptake stably transfected in HEK293 cells
Experimental Readout: IC50

C[C@H](O)C[C@H](C(=O)NCc1ccccc1)N1CCC(=C(c2ccccc2)c2ccccc2)CC1    30.9 µM
O=C(NCc1ccccc1Cl)C(CCO)N1CCC(C(c2ccccc2)c2ccccc2)CC1 (stereo not given)    36.3 µM
Cc1ccc(CNC(=O)C(CCO)N2CCC(C(c3ccccc3)c3ccccc3)CC2)cc1 (stereo not given)    42.7 µM
C[C@H](O)C[C@H](C(=O)NCc1ccc(F)cc1)N1CCC(=C(c2ccccc2)c2ccccc2)CC1    55 µM
CN(CCCC(c1ccccc1)c1ccccc1)C(CCO)C(=O)NCc1ccccc1Cl (stereo not given)    16.2 µM
O=C(NCc1ccc(Cl)cc1)C(CCO)NCCCC(c1ccccc1)c1ccccc1 (stereo not given)    14.8 µM
O=C(NCc1ccccc1Cl)C(CCO)NCCCC(c1ccccc1)c1ccccc1 (stereo not given)    18.2 µM
C[C@@H](O)C[C@H](C(=O)NCc1ccccc1)N1CCC(=C(c2ccccc2)c2ccccc2)CC1    21.9 µM
O=C(NCc1ccc(F)cc1)C(CCO)N1CCC(=C(c2ccccc2)c2ccccc2)CC1 (stereo not given)    28.2 µM
CN(CCC=C(c1ccccc1)c1ccccc1)C(CCO)C(=O)NCc1ccccc1 (stereo not given)    13.5 µM

## Task Notebook entry, Sodium- and chloride-dependent GABA transporter 3 (Mus musculus) assay: IC50 of C[C@H](O)C[C@H](C(=O)NCc1ccccc1Cl)N1CCC(=C(c2ccccc2)c2ccccc2)CC1 = ?
## Result 28.8 µM

## Task Notebook entry, Sodium- and chloride-dependent GABA transporter 3 (Mus musculus) assay: IC50 of O=C(NCc1ccccc1)C(CCO)N1CCC(=C(c2ccccc2)c2ccccc2)CC1 (stereo not given) = ?
## Result 37.2 µM

## Task Notebook entry, Sodium- and chloride-dependent GABA transporter 3 (Mus musculus) assay: IC50 of O=C(NCc1ccc(F)cc1)C(CCO)N1CCC(C(c2ccccc2)c2ccccc2)CC1 (stereo not given) = ?
## Result 34.7 µM

## Task Notebook entry, Sodium- and chloride-dependent GABA transporter 3 (Mus musculus) assay: IC50 of O=C(NCc1ccccc1)C(CCO)N1CCC(C(c2ccccc2)c2ccccc2)CC1 (stereo not given) = ?
## Result 41.7 µM

## Task Notebook entry, Sodium- and chloride-dependent GABA transporter 3 (Mus musculus) assay: IC50 of O=C(NCc1ccc(F)cc1)C(CCO)NCCCC(c1ccccc1)c1ccccc1 (stereo not given) = ?
## Result 22.9 µM
